Assay: qHTS for Inhibitors of the Functional Ribonucleoprotein Complex (vRNP) of Lymphocytic Choriomeningitis Arenaviruses (LCMV): Viability assay - alamar blue signal for LCMV Primary Screen (AID 1347085); note: nearly all actives have a fitted effect of over 80% in size
Details: alamar blue viability counter-screen, LCMV vRNP screen cells; series mostly up to 57.5 µM
Inconclusive results are not listed. Active and inactive are the calls of the source. Calls come from the whole dose curve; tested in HEK293 reporter line.
# output must be one of active, inactive

| compound | class |
| --- | --- |
| COc1cc2c(CCNC(C)=O)c[nH]c2cc1O | inactive |
| COc1c2ccoc2nc2c(OC)c(O[C@@H]3O[C@H](C)[C@@H](O)[C@@H](O)[C@H]3O)ccc12 | inactive |

Q) Dear all, I need the recorded test outcome for COc1ccc(CCC(=O)O)cc1 , thank you.
A) inactive

Q) Dear all, I need the recorded test outcome for N[C@@H](CC(=O)N1CCn2c(nnc2C(F)(F)F)C1)Cc1cc(F)c(F)cc1F , thank you.
A) inactive

Q) Dear all, I need the recorded test outcome for CC1=CC2=C(C=O)C(=O)C(C)(O)C(O)C2=CO1 (stereo not given) , thank you.
A) inactive

Q) Dear all, I need the recorded test outcome for CC1CCN(CC[C@H]2CCCN2S(=O)(=O)c2cccc(O)c2)CC1 , thank you.
A) inactive

Q) Dear all, I need the recorded test outcome for CC(C)c1cc(C(C)C)c(CC(=O)NS(=O)(=O)Oc2c(C(C)C)cccc2C(C)C)c(C(C)C)c1 , thank you.
A) inactive

Q) Dear all, I need the recorded test outcome for CC1(C)Oc2ccc3ccc(=O)oc3c2[C@@H](O)[C@H]1O , thank you.
A) inactive

Q) Dear all, I need the recorded test outcome for CN(C)S(=O)(=O)c1ccc2c(c1)C(=Cc1cc3c([nH]1)CCCC3)C(=O)N2 , thank you.
A) active

Q) Dear all, I need the recorded test outcome for CC(C)c1cc(C(=O)N2Cc3ccc(CN4CCN(C)CC4)cc3C2)c(O)cc1O , thank you.
A) active

* * *

Assay: Cytotoxicity counterscreen for inhibitors of SARS-CoV-2 cell entry (AID 1645845); note: nearly all actives have a fitted effect of over 50% in size
Conditions: cell viability (SARS-CoV-2 entry assay cells); series mostly up to 57.1 µM
Inconclusive results are not listed. The source made the active and inactive calls. The call rests on the fitted dose curve.
# output must be one of TRUE = active, FALSE = inactive

| molecule | class |
| --- | --- |
| Cc1cnc(Nc2ccc(CN3CCOCC3)cc2)nc1Nc1cccc(S(=O)(=O)NC(C)(C)C)c1 | TRUE |
| CN1CC(=O)NC1=NC(=O)Nc1cccc(Cl)c1 | FALSE |
| CCCC1O[C@@H]2C[C@H]3[C@@H]4CCC5=CC(=O)C=C[C@]5(C)[C@H]4[C@@H](O)C[C@]3(C)[C@]2(C(=O)CO)O1 (some centres undefined) | FALSE |

Q) Dear all, I need the recorded test outcome for CC(C)Oc1ccc(C(=O)N[C@H](CNC(=O)CN(C)C)Cc2ccc(-c3cn4cccc([C@H](C)O)c4n3)cc2)cc1Cl , thank you.
A) FALSE

* * *

Experiment: Cytotoxicity counterscreen for inhibitors of SARS-CoV-2 cell entry (AID 1645845); note: nearly all actives have a fitted effect of over 50% in size
Details: cell viability (SARS-CoV-2 entry assay cells); series mostly up to 57.1 µM
Inconclusive results are not listed. The source made the active and inactive calls. Calls follow the shape of the full dose curve.
# output must be one of active, inactive

| compound | class |
| --- | --- |
| Cc1cc(O)c2c(c1)C(=O)c1cccc(O)c1C2=O | inactive |

Q) Dear all, I need the recorded test outcome for Nc1nccc(-c2ccc3noc(-c4ccc(Cl)cc4)c3c2)n1 , thank you.
A) inactive

Q) Dear all, I need the recorded test outcome for COC(=O)[C@H]1[C@@H](OC(=O)c2ccccc2)C[C@@H]2CC[C@H]1N2C , thank you.
A) inactive

* * *

Test system: Tov112D
Experiment: Primary qHTS to identify gynecologic anti-cancer compounds using libraries of approved drugs and bioactive compounds (AID 1345084); note: nearly all actives have a fitted effect of over 55% in size
Conditions: Gynecologic cancer cell panel viability, ATPlite luminescence, 48 h; series mostly up to 57.5 µM
Results filed as inconclusive are left out. Active and inactive are the calls of the source. Calls follow the shape of the dose curve; as a rule, active = well fitted cell-killing curve with a large enough effect; inconclusive = small, poorly fitted or top-dose-only effect, or effect the other way; inactive = flat fitted curve, though single readings scatter.
# output must be one of y = active, n = inactive

Worked set:
| molecule | class |
| --- | --- |
| C[C@]12CCC(=O)C=C1CC[C@@H]1[C@@H]2[C@@H](O)C[C@]2(C)C(=O)CC[C@@H]12 | n |
| CC(=O)O[C@H]1CC[C@@]2(CI)C(=CC[C@@H]3[C@@H]2CC[C@]2(C)C(=O)CC[C@@H]32)C1 | n |
| C=CC(C)(C)C12C=C(O)C(=O)N3/C(=C\c4cnc[nH]4)C(=O)NC31N(OC)c1ccccc12 (configuration not stated) | n |

Q) Dear all, I need the recorded test outcome for CC[C@H]1C2CC3[C@@H]4N(C)c5ccccc5[C@]45C[C@@H]([C@H]2[C@H]5O)N3[C@@H]1O , thank you.
A) n

Q) Dear all, I need the recorded test outcome for Cc1ccc(Cn2nc(C(=O)N[C@@H]3C(C)(C)[C@@H]4CC[C@@]3(C)C4)cc2-c2ccc(Cl)c(C)c2)cc1 , thank you.
A) n

Q) Dear all, I need the recorded test outcome for C=C(C)C(=O)O[C@H]1[C@@H]2[C@H](C)C(=O)O[C@@H]2C[C@@H](C)[C@@H]2C=CC(=O)[C@]21C , thank you.
A) y

Q) Dear all, I need the recorded test outcome for C#CCO[C@H]1CN2CCC1CC2 , thank you.
A) n

Q) Dear all, I need the recorded test outcome for COC(=O)[C@@]1(C)C(=O)C=C[C@]2(C)c3c(O)cc(C(C)C)cc3[C@H](O)[C@@H](OC(C)=O)C12 (some centres not stated) , thank you.
A) n

Q) Dear all, I need the recorded test outcome for Oc1ccc2c3c1O[C@H]1c4[nH]c5c(N=C=S)cccc5c4C[C@@]4(O)[C@@H](C2)N(CC2CC2)CC[C@]314 , thank you.
A) n

Q) Dear all, I need the recorded test outcome for C=C(C)[C@@H]1[C@H]2OC(=O)[C@H]1[C@]1(O)C[C@H]3O[C@]34C(=O)O[C@H]2[C@]14C , thank you.
A) n

Q) Dear all, I need the recorded test outcome for CC(=O)O[C@H]1C[C@@H](C)O[C@H]2O[C@@H]3CC4CC[C@@H]5C(CC[C@]6(C)[C@@H](C7=CC(=O)OC7)CC[C@]56O)[C@@]4(C=O)C[C@H]3O[C@]21O (some centres not stated) , thank you.
A) y

Q) Dear all, I need the recorded test outcome for CCOP(=O)(OCC)Oc1ccc2c(C)cc(=O)oc2c1 , thank you.
A) n

Q) Dear all, I need the recorded test outcome for COC(=O)[C@]12CCCC(C)(C)C1CCc1cc(C(C)C)c(O)c(O)c12 (some centres not stated) , thank you.
A) n

Q) Dear all, I need the recorded test outcome for C[C@@H]1O[C@@H](OC2CCC3(C=O)C(CCC4C3CCC3(C)C(C5=CC(=O)OC5)C(O)CC43O)C2)[C@H](O)[C@H](O)[C@H]1O[C@@H]1O[C@H](CO)[C@@H](O)[C@H](O)[C@H]1O (some centres not stated) , thank you.
A) y

Q) Dear all, I need the recorded test outcome for O=S(=O)(c1ccccc1F)N1CCOc2c(N3CCNCC3)cccc21 , thank you.
A) n

Q) Dear all, I need the recorded test outcome for CN1CCCCC1Cn1cc(C(=O)c2cc([N+](=O)[O-])ccc2I)c2ccccc21 (configuration not stated) , thank you.
A) n

Q) Dear all, I need the recorded test outcome for CC[C@@H]1C[C@H]2CC[C@H](O2)[C@H](C)C(=O)O[C@@H](C)C[C@@H]2CC[C@@H](O2)[C@@H](C)C(=O)O[C@H](CC)C[C@H]2CC[C@H](O2)[C@H](C)C(=O)O[C@@H](C)C[C@@H]2CC[C@@H](O2)[C@@H](C)C(=O)O1 , thank you.
A) y

Q) Dear all, I need the recorded test outcome for CN1C(=O)[C@@H](Cc2c[nH]c3ccccc23)N=C(c2ccccc2F)c2ccccc21 , thank you.
A) n

* * *

Test system: HEK293
Assay: Cytotoxic Profiling of Annotated Libraries Using Quantitative High-Throughput Screening (AID 1296008); note: nearly all actives have a fitted effect of over 60% in size
Settings: Five cell lines viability, CellTiter-Glo ATP luminescence, 48-72 h
Results filed as inconclusive are left out. Calls of active or inactive are those of the source. Calls follow the shape of the dose curve; as a rule, active = well fitted inhibition curve with a large enough effect; inconclusive = small, poorly fitted or top-dose-only effect; inactive = flat fitted curve, though single readings scatter.
# output must be one of Y = active, N = inactive

Worked set:
| compound | measured target | class |
| --- | --- | --- |
| CC(=O)O[C@H]1C[C@]2(O)[C@@H]3CC[C@@H]4C[C@@H](O)CC[C@]4(C)[C@H]3CC[C@]2(C)[C@H]1c1ccc(=O)oc1 | HEK293 | Y |
| CCC1C2CC3C4N(C)c5ccccc5C45CC(C2C5O)N3C1O (configuration not stated) | HEK293 | N |
| CC1=CC(=O)[C@@H](O)[C@@]2(C)C1C[C@H]1OC(=O)[C@H](O)[C@@]3(O)[C@@H](C)[C@@H](O)[C@H](O)C2[C@@]13C (some centres not stated) | HEK293 | Y |
| C=C(C)[C@@]12O[C@@H]1[C@@]1(C)C(=CC2=O)CC[C@@H](OC(C)=O)[C@@H]1C | HEK293 | Y |
| CC(=O)OC[C@]12C[C@H](OC(=O)CC(C)C)C(C)=C[C@H]1O[C@@H]1[C@H](O)[C@@H](O)[C@@]2(C)[C@]12CO2 | HEK293 | Y |

Q) Dear all, I need the recorded test outcome for Fc1cc(F)c2c(c1)C1C=CCC1C(c1cccnc1)N2 (configuration not stated) , thank you.
A) Y

Q) Dear all, I need the recorded test outcome for C[C@H]1CCC/C=C/C2C[C@H](O)C[C@H]2[C@H](O)/C=C/C(=O)O1 (some centres not stated) , thank you.
A) Y

Q) Dear all, I need the recorded test outcome for C=C(C)[C@@H]1[C@H]2OC(=O)[C@H]1[C@]1(O)C[C@H]3O[C@]34C(=O)O[C@H]2[C@]14C , thank you.
A) N

Q) Dear all, I need the recorded test outcome for COC1CC(O[C@H]2CC[C@@]3(C)C(CCC4C3CC[C@]3(C)[C@@H](C5=CC(=O)OC5)CC[C@]43O)C2)OC(C)C1O (some centres not stated) , thank you.
A) Y
